Tested on: Y289H rWSN
Assay type: cell-based, influenza A virus
Settings: read-out: IC50 (μM) Y289H rWSM (H1N1)
measurement-name: IC50 (µM)
Form entry: value (µM) — number only.

Lookup: Which IC50 value is on record for O=C(O)c1cc(-c2ccc(-c3ccccc3)cc2)nc2ccccc12 [RK424] ?
Found: 0.3
